Below is a list of entries, each paired with its recorded pIC50 value.
study.system: Axl (Homo sapiens)
Sequence (P30530 26-894): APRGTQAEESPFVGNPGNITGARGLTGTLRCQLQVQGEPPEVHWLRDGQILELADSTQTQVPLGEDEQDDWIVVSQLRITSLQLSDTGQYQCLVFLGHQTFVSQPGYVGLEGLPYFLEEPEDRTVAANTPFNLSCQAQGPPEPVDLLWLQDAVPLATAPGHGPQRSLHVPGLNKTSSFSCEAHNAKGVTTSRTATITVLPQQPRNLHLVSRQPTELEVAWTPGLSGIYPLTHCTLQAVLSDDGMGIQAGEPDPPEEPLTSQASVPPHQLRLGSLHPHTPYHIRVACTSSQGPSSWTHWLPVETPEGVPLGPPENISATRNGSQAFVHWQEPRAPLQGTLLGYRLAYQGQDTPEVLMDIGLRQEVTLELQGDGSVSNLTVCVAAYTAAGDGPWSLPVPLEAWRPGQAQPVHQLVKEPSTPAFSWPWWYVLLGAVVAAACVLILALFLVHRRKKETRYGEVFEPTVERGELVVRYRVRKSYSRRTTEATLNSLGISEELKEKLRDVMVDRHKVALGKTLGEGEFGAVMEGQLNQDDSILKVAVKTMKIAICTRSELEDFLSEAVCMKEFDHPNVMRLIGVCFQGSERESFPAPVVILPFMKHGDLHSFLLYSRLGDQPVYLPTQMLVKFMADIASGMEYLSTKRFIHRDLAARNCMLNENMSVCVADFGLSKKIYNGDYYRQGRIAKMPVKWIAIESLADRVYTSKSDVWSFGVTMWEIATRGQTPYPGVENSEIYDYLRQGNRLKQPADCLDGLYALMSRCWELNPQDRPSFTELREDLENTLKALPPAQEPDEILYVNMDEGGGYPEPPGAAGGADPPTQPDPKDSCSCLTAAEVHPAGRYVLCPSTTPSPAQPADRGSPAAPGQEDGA
procedure.text: HTRF KinEASE-TK biochemical potency assay, AXL
Design: purchased Invitrogen
condition.details: 5 nM AXL, 700 μM ATP, 800 nM TK Substrate-biotin
pIC50: −log10 of the molar value.
measured.endpoint: pIC50

molecule="CC1(N2CCC[C@@H]2CO)CCc2ccc(-c3cnc4[nH]nc(-c5ccc(S(=O)(=O)C6CC6)cc5)c4c3)cc2CC1 (some centres unmarked)" result="> 7.00"
molecule="C[C@@H]1CCCN1C1CCc2ccc(-c3cnc4[nH]nc(-c5ccc(C6(O)CCC6)c(Cl)c5)c4c3)cc2CC1 (some centres unmarked)" result="> 7.00"
molecule="CCC1(N2CCC[C@H]2C)CCc2ccc(-c3cnc4[nH]nc(-c5ccc(C(N)=O)c(Cl)c5)c4c3)cc2CC1 (some centres unmarked)" result="> 7.00"
molecule="C[C@H]1CCCN1C1CCc2ccc(-c3cnc4[nH]nc(-c5ccc(S(C)(=O)=O)cc5)c4c3)cc2CC1 (some centres unmarked)" result="> 7.00"
molecule="CCC1(N2CCC[C@H]2C)CCc2ccc(-c3cnc4[nH]nc(-c5ccc(S(=O)(=O)C6CC6)cc5)c4c3)cc2CC1 (some centres unmarked)" result="> 7.00"
molecule=O=S(=O)(c1ccc(-c2n[nH]c3ncc(-c4ccc5c(c4)CC[C@@H](N4CCCC4)CC5)cc23)cc1)C1CC1 result="> 7.00"
molecule=O=C1CCCN1c1ccc(-c2n[nH]c3ncc(-c4ccc5c(c4)CC[C@@H](N4C6COCC4C6)CC5)cc23)cc1 result="> 7.00"
molecule=O=C(c1ccc(-c2n[nH]c3ncc(-c4ccc5c(c4)CC[C@@H](N4CCCC4)CC5)cc23)cc1Cl)N1CCNCC1 result="> 7.00"
molecule="C[C@@H]1CCCN1C1(C)CCc2ccc(-c3cnc4[nH]nc(-c5ccc(S(=O)(=O)C6CC6)c(F)c5)c4c3)cc2CC1 (some centres unmarked)" result="> 7.00"
molecule=CN(C)C(=O)c1ccc(-c2n[nH]c3ncc(-c4ccc5c(c4)CC[C@@H](N4C6COCC4C6)CC5)cc23)cc1 result="> 7.00"
molecule="CS(=O)(=O)N1CCC(c2n[nH]c3ncc(-c4ccc5c(c4)CCC(N4CCCC4)CC5)cc23)CC1 (centres unmarked)" result="> 7.00"
molecule=CS(=O)(=O)c1ccc(-c2n[nH]c3ncc(-c4ccc5c(c4)CCN(C4CCCC4)CC5)cc23)cc1 result="> 7.00"
molecule=Cc1cc(-c2n[nH]c3ncc(-c4ccc5c(c4)CC[C@@H](N4CCCC4)CC5)cc23)cc(C)c1C(=O)N1CCNCC1 result="> 7.00"
molecule="CC(C)(O)c1ccc(-c2n[nH]c3ncc(-c4ccc5c(n4)CCC(N4CCCC4)CC5)cc23)cc1Cl (centres unmarked)" result="6.00 to 7.00"
